- experimental.system: T1, Native human C1r enzyme (Comptech A102) (human, UniProt P00736 18-705)
- T1 construct: mature
- T1 sequence (looked up): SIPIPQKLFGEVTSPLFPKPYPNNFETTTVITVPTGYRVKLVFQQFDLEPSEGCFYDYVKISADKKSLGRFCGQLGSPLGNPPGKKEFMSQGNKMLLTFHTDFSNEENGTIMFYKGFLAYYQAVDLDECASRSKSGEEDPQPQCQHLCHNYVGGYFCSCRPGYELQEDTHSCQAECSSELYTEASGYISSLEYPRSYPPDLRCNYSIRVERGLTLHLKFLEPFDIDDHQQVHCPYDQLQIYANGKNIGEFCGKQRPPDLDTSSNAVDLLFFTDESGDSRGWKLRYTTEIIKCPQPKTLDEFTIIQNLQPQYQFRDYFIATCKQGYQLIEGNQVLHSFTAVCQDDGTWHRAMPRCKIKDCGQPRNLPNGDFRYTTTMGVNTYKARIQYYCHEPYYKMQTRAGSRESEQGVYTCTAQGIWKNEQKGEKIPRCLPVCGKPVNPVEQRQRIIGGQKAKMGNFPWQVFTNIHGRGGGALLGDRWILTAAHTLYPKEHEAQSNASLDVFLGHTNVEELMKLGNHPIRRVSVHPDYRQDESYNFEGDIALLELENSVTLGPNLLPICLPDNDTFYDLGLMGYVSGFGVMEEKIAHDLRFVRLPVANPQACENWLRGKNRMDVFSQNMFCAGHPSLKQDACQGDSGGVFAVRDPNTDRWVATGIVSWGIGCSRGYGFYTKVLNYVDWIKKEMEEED
- assay.overview: SPR (BIACORE T200, 37 degrees C, pH 7.4), antibody captured by protein A/G, C1r 25 nM as a dimer
measured.endpoint: binding result

binder="COR0212bb-SG1148 (antibody, human IgG1, kappa, V domains shown, Anti-C1r antibody) VH: QEQLKESGGGLVTPGGTLTLTCTASGFSLSSYDMSWVRQAPGKGLDWIGIINTGGSAYYATWAKGRFTISKTSTTVDLKITSPTTEDTATYFCGRKINDAFDPWGPGTLVTVSS VL: AQVLTQTPFSVSAAVGGTVTINCQASESISSNLAWYQQKPGQPPKLLIYDASDLASGVPSRFKGSGSGKQFTLTISGVQCDDAATYFCQHGWIYDTIDSNCFGGGTKVEIKR" test_value=binds
binder="COR0205gg-SG1148 (antibody, human IgG1, kappa, V domains shown, Anti-C1r antibody; also called COR205gg(-SG1148)) VH: QSLEESGGGLFKPTDTLTLTCTVSGFSLSSNAMSWVRQAPGKGLEYIGIIYLTGVTYYATWAKGRFTISKTSTTVDLKITSPTTEDTATYFCAGGEFSLWGPGTLVTVSS VL: DIIMTQTPASVEAAVGGTVTIKCQASQGIDNYFSWHQQKPGQPPKLLIYKASTLASGVSSRFKGSGSGTEFTLTISDLECDDAATYYCQCTYGYNINDNYGNAFGGGTKVEIKR" test_value=binds
binder="COR0278bb-SG1148 (antibody, human IgG1, kappa, V domains shown, Anti-C1r antibody) VH: QSLEESGGRLVTPGTPLTLTCTASGFSLSSYDMTWVRQAPGKGLEWIGIIYTLGSAYYASWAKGRFTISRTSTTVDLKMTSPTTEDTATYFCARGGDSYGAVDTAFDLWGPGTLVTVSS VL: AQVLTQTPSPVSAAVGGTVTISCQSSPSVYSNYLSWYQQKPGQPPKLLIYRASRLASGVPSRFKGSGSGTQFTLTISEVQCDDAATYYCQGYFGNGINAFGGGTKVEIKR" test_value=binds
